test system: Staphylococcus aureus L160a (penicillinase-producing)
Each entry below carries its reported MIC.
measureName: MIC (µg/mL)

molecule	targetOrSystem	measureName	reported
Cc1onc(-c2ccccc2Cl)c1C(=O)N[C@@H]1C(=O)N2[C@@H]1SC(C)(C)[C@@H]2C(=O)O [Cloxazilline, Cloxacillin, reference compound]	Staphylococcus aureus L160a (penicillinase-producing)	MIC	1
O=C(Cc1cccs1)N[C@@H]1C(=O)N2C(C(=O)[O-])=C(C[n+]3ccccc3)CS[C@H]12 [Cephaloridine, Cephaloridin, reference compound]	Staphylococcus aureus L160a (penicillinase-producing)	MIC	0.06
CC(=O)OCC1=C(C(=O)O)N2C(=O)C(NC(=O)Cc3cc(-c4c(Cl)cccc4Cl)no3)C2SC1 (stereo not shown) [Example III]	Staphylococcus aureus L160a (penicillinase-producing)	MIC	0.06
CC1=C(C(=O)O)N2C(=O)C(NC(=O)Cc3onc(-c4c(C)cc(C)cc4C)c3C)C2SC1 (stereo not shown) [XIII]	Staphylococcus aureus L160a (penicillinase-producing)	MIC	6
CC1=C(C(=O)O)N2C(=O)[C@@H](NC(=O)[C@H](N)c3ccccc3)[C@H]2SC1 [Cephalexine, Cephalexin, reference compound]	Staphylococcus aureus L160a (penicillinase-producing)	MIC	12.5
CC(=O)OCC1=C(C(=O)O)N2C(=O)C(NC(=O)Cc3onc(-c4c(C)cc(C)cc4C)c3C)C2SC1 (stereo not shown) [XII]	Staphylococcus aureus L160a (penicillinase-producing)	MIC	0.25
Cc1cc(C)c(-c2cc(CC(=O)NC3C(=O)N4C3SC(C)(C)C4C(=O)O)on2)c(C)c1 (stereo not shown) [VI]	Staphylococcus aureus L160a (penicillinase-producing)	MIC	0.5
